The origin of these recorded values is patent US20130115166A1.

Target: T1, IL-23 (HEK293E-derived) (human, UniProt P29460 23-328; Q9NPF7 20-189)
T1 sequence 1: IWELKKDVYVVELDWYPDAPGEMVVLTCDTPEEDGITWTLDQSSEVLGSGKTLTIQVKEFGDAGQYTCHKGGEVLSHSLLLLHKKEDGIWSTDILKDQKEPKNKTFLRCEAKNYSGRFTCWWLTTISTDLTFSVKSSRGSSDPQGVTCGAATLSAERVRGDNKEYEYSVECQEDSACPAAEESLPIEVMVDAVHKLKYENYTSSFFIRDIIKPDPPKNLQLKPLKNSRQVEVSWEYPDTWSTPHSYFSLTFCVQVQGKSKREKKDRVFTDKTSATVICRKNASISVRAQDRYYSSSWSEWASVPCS
T1 sequence 2: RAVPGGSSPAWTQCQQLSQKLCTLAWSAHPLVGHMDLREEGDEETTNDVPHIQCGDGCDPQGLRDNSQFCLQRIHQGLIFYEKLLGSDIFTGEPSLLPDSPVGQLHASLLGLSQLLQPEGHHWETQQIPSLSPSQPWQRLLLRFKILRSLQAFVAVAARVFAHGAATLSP
Assay: SPR (Biacore), antibody supernatant captured on Protein A, IL-23 at 5 ug/ml as analyte
reported metric: koff (s⁻¹)
# number only, unit s⁻¹ dropped from output

Returns the measured koff for the input binder. Input: 6-22 (antibody, human IgG1, kappa, V domains shown, Humanized form of E11E7; also called humanized antibody 6-22) VH: QVQLQESGPGLVKPSETLSLTCTVSGFSISSYNVHWIRQPPGKGLEWIGVIWTGGSTDYNPSLKSRVTISRDTSKNQFSLKLSSVTAADTAVYYCARDKYGLFPGYFDYWGQGTLVTVSS VL: DIVMTQSPDSLAVSLGERATINCKPSQSLLSSGNRKNYLAWYQQKPGQPPKLLIYYASTRQSGVPDRFSGSGSGTDFTLTISSLQAEDVAVYYCLQHFNYPWTFGQGTKLEIKR
0.000241

Also need 7-22 (antibody, human IgG1, kappa, V domains shown, Humanized form of E11E7; also called humanized antibody 7-22) VH: QVQLQESGPGLVKPSETLSLTCTVSGGSLSSYNVHWIRQPPGKGLEWIGVIWTGGSTDYNPSLKSRVTISRDTSKNQFSLKLSSVTAADTAVYYCARDKYGLFPGYFDYWGQGTLVTVSS VL: DIVMTQSPDSLAVSLGERATINCKPSQSLLSSGNRKNYLAWYQQKPGQPPKLLIYYASTRQSGVPDRFSGSGSGTDFTLTISSLQAEDVAVYYCLQHFNYPWTFGQGTKLEIKR , thanks.
0.00102

Also need 6-23 (antibody, human IgG1, kappa, V domains shown, Humanized form of E11E7; also called humanized antibody 6-23) VH: QVQLQESGPGLVKPSETLSLTCTVSGFSISSYNVHWIRQPPGKGLEWIGVIWTGGSTDYNPSLKSRVTISRDTSKNQFSLKLSSVTAADTAVYYCARDKYGLFPGYFDYWGQGTLVTVSS VL: DIVMTQTPLSLPVTPGEPASISCKPSQSLLSSGNRKNYLAWYLQKPGQSPQLLIYYASTRQSGVPDRFSGSGSGTDFTLKISRVEAEDVGVYYCLQHFNYPWTFGQGTKLEIKR , thanks.
0.000566
